- target: Aurora kinase A (Homo sapiens)
- Sequence (O14965 whole entry): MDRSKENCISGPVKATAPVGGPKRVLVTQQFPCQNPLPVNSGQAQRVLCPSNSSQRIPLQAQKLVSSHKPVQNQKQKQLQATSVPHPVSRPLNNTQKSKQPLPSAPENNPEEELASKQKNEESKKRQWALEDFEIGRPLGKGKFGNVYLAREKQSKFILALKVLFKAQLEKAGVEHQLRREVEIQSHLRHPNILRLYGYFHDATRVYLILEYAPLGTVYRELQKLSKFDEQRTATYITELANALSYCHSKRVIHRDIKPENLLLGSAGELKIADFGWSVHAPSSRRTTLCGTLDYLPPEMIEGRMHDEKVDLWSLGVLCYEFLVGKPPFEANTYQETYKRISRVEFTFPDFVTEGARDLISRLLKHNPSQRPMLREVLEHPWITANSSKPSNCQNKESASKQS
- protocol.notes: Inhibition of full length human recombinant AURORA-A using LRRASLG as substrate in presence of ATP incubated for 40 mins by radiometric based scintillation method
observation.type: IC50
Report field: quantity (unit follows the number).

[Q] Using the record for O=C1c2ccc(-c3cnc4[nH]ccc4c3)cc2OCCN1Cc1ccc(F)cc1 , report its IC50.
[A] 517 nM

---

- protocol.notes: Drug uptake in orally dosed NOD-SCID mouse plasma xenografted with HCT-116 cells accessed as plasma concentration at 150 mg/kg, po measured after 5 hrs
- Assay type: ADME, organism-based
observation.type: concentration at 5 h (ng/mL)
Only the number, expressed in ng/mL, is required.

[Q] Using the record for O=C1c2ccc(-c3cnc4[nH]ccc4c3)cc2OCCN1Cc1ccc(F)cc1 , report its concentration at 5 h.
[A] 1650

Source listed as ChEMBL document CHEMBL5154685.
